IC50 listing for selected molecules.
# Measured On: hACSL5 (Homo sapiens (Human), UniProt Q9ULC5)
# Sequence (Q9ULC5 whole entry): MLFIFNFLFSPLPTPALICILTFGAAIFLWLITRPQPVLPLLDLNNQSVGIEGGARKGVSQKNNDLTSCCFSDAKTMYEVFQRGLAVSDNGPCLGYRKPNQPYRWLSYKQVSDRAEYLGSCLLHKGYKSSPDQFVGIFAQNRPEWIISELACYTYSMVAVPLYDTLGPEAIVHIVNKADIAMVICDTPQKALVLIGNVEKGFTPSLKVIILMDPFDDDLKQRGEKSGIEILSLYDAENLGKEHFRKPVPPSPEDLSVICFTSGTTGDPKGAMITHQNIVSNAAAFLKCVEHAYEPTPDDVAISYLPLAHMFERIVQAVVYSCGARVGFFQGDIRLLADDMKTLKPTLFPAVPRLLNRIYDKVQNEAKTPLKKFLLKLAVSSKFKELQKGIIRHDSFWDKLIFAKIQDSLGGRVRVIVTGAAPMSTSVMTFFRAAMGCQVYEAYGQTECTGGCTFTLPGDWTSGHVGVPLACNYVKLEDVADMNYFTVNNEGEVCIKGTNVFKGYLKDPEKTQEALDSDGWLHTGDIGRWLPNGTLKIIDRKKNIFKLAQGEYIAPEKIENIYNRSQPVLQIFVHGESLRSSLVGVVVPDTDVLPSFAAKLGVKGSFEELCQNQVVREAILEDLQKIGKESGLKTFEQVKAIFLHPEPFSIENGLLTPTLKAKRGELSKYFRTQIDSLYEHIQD
# Method Description: Cell-based assay (CBA) with B12FA in hACSL5-transfected Expi293F / FlpIn TRex293 cells
# Assay Context: hACSL5-expressing cells

Known results for molecules:
Molecule	Measurement Label	Obs Value
CC[C@@H](Oc1ccc(C(=O)NS(=O)(=O)N2CCCN(C)CC2)c(F)c1F)c1ccc(OCC2CC2)cn1	IC50	100 to 500 nM
CC[C@@H](Oc1ccc(C(=O)NS(=O)(=O)c2ccc(NCCN3CCCC3)nc2)c(F)c1F)c1ccc(OCC2CC2)cn1	IC50	> 500 nM
CC[C@@H](Oc1ccc(C(=O)NS(=O)(=O)N2CCN(C3CC3)CC2)c(F)c1F)c1cc(Oc2ccccn2)ccn1	IC50	100 to 500 nM

Quick one: IC50 of CC[C@@H](Oc1ccc(C(=O)NS(=O)(=O)C(C)(C)CN(C)C)c(F)c1F)c1ccc(Oc2ccccn2)cn1 ?
< 100 nM

Quick one: IC50 of CC[C@@H](Oc1ccc(C(=O)NS(=O)(=O)c2ccc(OC3CCN(C(C)C)CC3)cc2)c(F)c1F)c1ccc(OCC2CC2)cn1 ?
100 to 500 nM

Quick one: IC50 of CC[C@@H](Oc1ccc(C(=O)NS(=O)(=O)c2ccc(OC34CCN(CC3)C4)cc2)c(F)c1F)c1ccc(OCC2CC2)cn1 ?
100 to 500 nM

Quick one: IC50 of CC[C@@H](Oc1ccc(C(=O)NS(=O)(=O)N2CC3CC2CC3OCCN2CCCC2)c(F)c1F)c1ccc(OCC2CC2)cn1 (some centres unmarked) ?
100 to 500 nM

Quick one: IC50 of CC[C@@H](Oc1ccc(C(=O)NS(=O)(=O)c2ccc(OCCN3CCCCC3)cc2)c(F)c1F)c1ccc(OCC2CC2)cn1 ?
< 100 nM

Quick one: IC50 of CC[C@@H](Oc1ccc(C(=O)NS(=O)(=O)N2CCN(CC(C)(C)F)CC2)c(F)c1F)c1ccc(OCC2CC2)cn1 ?
< 100 nM

Quick one: IC50 of CC[C@@H](Oc1ccc(C(=O)NS(=O)(=O)N2C[C@@H](C)N(C)[C@@H](C)C2)c(F)c1F)c1ccc(OCC2CC2)cn1 ?
< 100 nM

Quick one: IC50 of CC[C@@H](Oc1ccc(C(=O)NS(=O)(=O)N2CCC(OC3CCN(CCOC)CC3)CC2)c(F)c1F)c1ccc(OCC2CC2)cn1 ?
< 100 nM
